Some molecules, each annotated with its measured IC50.
System tested: human MetAP2 enzyme (Homo sapiens, UniProt P50579)
Sequence (P50579 whole entry): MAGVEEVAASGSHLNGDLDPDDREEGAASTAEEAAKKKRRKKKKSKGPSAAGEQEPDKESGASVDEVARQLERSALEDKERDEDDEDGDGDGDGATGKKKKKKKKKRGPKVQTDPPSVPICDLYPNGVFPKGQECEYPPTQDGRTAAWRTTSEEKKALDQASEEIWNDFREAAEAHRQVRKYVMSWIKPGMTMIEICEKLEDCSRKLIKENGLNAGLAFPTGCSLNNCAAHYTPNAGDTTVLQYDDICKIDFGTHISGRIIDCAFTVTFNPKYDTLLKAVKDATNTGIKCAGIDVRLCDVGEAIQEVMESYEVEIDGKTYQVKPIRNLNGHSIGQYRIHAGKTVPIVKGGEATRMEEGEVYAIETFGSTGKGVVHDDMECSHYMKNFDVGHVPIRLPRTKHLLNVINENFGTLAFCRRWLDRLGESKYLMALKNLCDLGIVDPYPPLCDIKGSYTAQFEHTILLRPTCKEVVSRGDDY
Experiment summary: MetAP2 enzyme assay, enzyme complexed with cobalt ions
Recorded conditions: MetAP2 Co pIC50, MetAP2 enzyme complexed with cobalt ions; Met-AMC substrate at Km
Number in nM, nothing else.

The examples below pair each entry with its known result.
Molecule: Cn1cnc(N)c(-c2cc(C(F)(F)F)cc3[nH]ncc23)c1=O [Example 245]
IC50 / nM: 1580

Molecule: CC(=O)Nc1ccc(-c2cc(C(F)(F)F)cc3[nH]ncc23)c(C)n1 [Example 178]
IC50 / nM: 31.6

Any idea what IC50 was measured for COC(=O)c1ccc(OC)c(-c2cc(C(F)(F)F)cc3[nH]ncc23)c1 [Example 263] ?
20

Any idea what IC50 was measured for CC(=O)Nc1cc(C)c(-c2cc(C(F)(F)F)cc3[nH]ncc23)cn1 [Example 179] ?
25.1

Any idea what IC50 was measured for Cn1cc(-c2cc(C(F)(F)F)cc3[nH]ncc23)c(=O)n(CCO)c1=O [Example 303] ?
1000

Any idea what IC50 was measured for CCN1C(=O)C(=O)c2cc(C)cc(-c3cc(C(F)(F)F)cc4[nH]ncc34)c21 [Example 199] ?
501

Any idea what IC50 was measured for CC(=O)Cn1nc(C)c(-c2cc(C(F)(F)F)cc3[nH]ncc23)c1C [Example 324] ?
63.1

Any idea what IC50 was measured for COc1ccc(C(=O)N2CCN(C)CC2)cc1-c1cc(C(F)(F)F)cc2[nH]ncc12 [Example 266] ?
63.1

Any idea what IC50 was measured for COCc1[nH]nc(C)c1-c1cc(C(F)(F)F)cc2[nH]ncc12 [Example 323] ?
10

Any idea what IC50 was measured for COc1ncc(-c2cc(C(F)(F)F)cc3[nH]ncc23)cc1C(=O)NCCO [Example 285] ?
50.1

Any idea what IC50 was measured for NC(=O)c1ccc(F)c(-c2cc(C(F)(F)F)cc3[nH]ncc23)c1 [Example 326] ?
31.6

Any idea what IC50 was measured for NC(=O)c1cc(-c2cc(C(F)(F)F)cc3[nH]ncc23)ccc1F [Example 110] ?
63.1

Any idea what IC50 was measured for O=C(NC1CC1)c1c[nH]c(=O)c(-c2cc(C(F)(F)F)cc3[nH]ncc23)c1 [Example 332] ?
316

Any idea what IC50 was measured for COc1ccc(C(=O)N(C)C)cc1-c1cc(C(F)(F)F)cc2[nH]ncc12 [Example 272] ?
39.8
